B1: Cold shock protein CspB, residues 1 to 66; numbered along this chain, P41016 (parent)
chain: MQRGKVKWFNNEKGYGFIEVEGGSDVFVHFTAIQGEGFKTLEEGQEVSFEIVQGNRGPQAANVVKL

variants of: B1; test: abundance fitness (aPCA) (normalised: wild type 0, dead -1); higher = more abundant; growth selection in yeast, the domain comes from the species named; conditions: Bacillus caldolyticus

- Residue change: "I18L"
  abundance fitness: 0.015
- Residue change: "M1R"
  abundance fitness: -0.096
- Residue change: "G35M"
  abundance fitness: 0.002
- Residue change: "Y15L"
  abundance fitness: -0.117
- Residue change: "F38D"
  abundance fitness: -0.12
- Residue change: "G35K"
  abundance fitness: -0.112
- Residue change: "E43R"
  abundance fitness: 0.032
- Residue change: "G23W"
  abundance fitness: -0.057
- Residue change: "V20Y"
  abundance fitness: -0.001
- Residue change: "G14D"
  abundance fitness: -0.468
- Residue change: "E21T"
  abundance fitness: 0.014
- Residue change: "G14E"
  abundance fitness: -0.359
- Residue change: "G4D"
  abundance fitness: -0.891
- Residue change: "T40S"
  abundance fitness: -0.023
- Residue change: "F27W"
  abundance fitness: -0.102
- Residue change: "L41H"
  abundance fitness: -0.616
- Residue change: "L41K"
  abundance fitness: -0.721
- Residue change: "G44I"
  abundance fitness: -0.567
- Residue change: "F17C"
  abundance fitness: -0.18
- Residue change: "I33Q"
  abundance fitness: -0.381
- Residue change: "Q2N"
  abundance fitness: -0.026
- Residue change: "F30I"
  abundance fitness: -0.087
- Residue change: "G4R"
  abundance fitness: -0.537
- Residue change: "G16L"
  abundance fitness: -0.901
- Residue change: "E43G"
  abundance fitness: 0.04
- Residue change: "N11Y"
  abundance fitness: -0.111
- Residue change: "E43C"
  abundance fitness: 0.032
- Residue change: "E42N"
  abundance fitness: -0.02
- Residue change: "K39R"
  abundance fitness: -0.003
- Residue change: "G22I"
  abundance fitness: -0.027
- Residue change: "E19F"
  abundance fitness: -0.048
- Residue change: "F38G"
  abundance fitness: -0.048
- Residue change: "F30H"
  abundance fitness: -0.023
- Residue change: "S24F"
  abundance fitness: -0.025
- Residue change: "T40H"
  abundance fitness: -0.064
- Residue change: "F9Y"
  abundance fitness: -0.119
- Residue change: "Q45N"
  abundance fitness: -0.005
- Residue change: "A32Y"
  abundance fitness: -0.263
- Residue change: "T31C"
  abundance fitness: -0.146
- Residue change: "G44R"
  abundance fitness: -0.013
- Residue change: "E36L"
  abundance fitness: -0.024
- Residue change: "G23P"
  abundance fitness: -0.011
- Residue change: "E19C"
  abundance fitness: 0.021
- Residue change: "V20D"
  abundance fitness: -0.054
- Residue change: "E12S"
  abundance fitness: 0.022
- Residue change: "E21S"
  abundance fitness: -0.009
